# credit: patent US20220220218A1

- Subject of test: T1, human CD73 (huCD73) protein, antigen of the Biacore assay (human, UniProt P21589 27-547, limits assumed)
- T1 construct: also called human CD73 antigen
- T1 sequence (looked up): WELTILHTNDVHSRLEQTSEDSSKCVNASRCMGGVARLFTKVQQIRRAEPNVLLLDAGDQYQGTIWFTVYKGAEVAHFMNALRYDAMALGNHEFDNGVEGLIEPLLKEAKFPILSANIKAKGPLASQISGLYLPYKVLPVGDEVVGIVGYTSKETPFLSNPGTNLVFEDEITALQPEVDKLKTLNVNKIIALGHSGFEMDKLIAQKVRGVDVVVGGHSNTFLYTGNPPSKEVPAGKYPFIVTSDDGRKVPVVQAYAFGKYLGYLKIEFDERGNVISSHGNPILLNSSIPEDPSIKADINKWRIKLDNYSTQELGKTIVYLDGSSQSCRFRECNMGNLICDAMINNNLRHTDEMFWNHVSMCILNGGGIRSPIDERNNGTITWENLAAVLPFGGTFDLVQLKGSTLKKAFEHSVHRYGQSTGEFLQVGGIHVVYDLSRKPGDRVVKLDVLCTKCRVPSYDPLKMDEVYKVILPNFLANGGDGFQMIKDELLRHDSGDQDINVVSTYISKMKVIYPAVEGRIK
- Test: SPR Biacore T200; antibody captured on Protein A chip, CD73 in flow; 1:1 Langmuir
List of kon values.
Just the number please, in M⁻¹ s⁻¹, no unit attached.

- Binder: "Hab127.31c (antibody, V domains shown, VL3 + VH1c, HCDR2 hot-spot variant; full-length antibody) VH: EVQLVQSGAEVKKPGASVKVSCKASGYTFTAYFMNWVRQAPGQGLEWMGRIYHNTGDTFYSQKFKGRVTMTVDKSTSTVYMELSSLRSEDTAVYYCATSYVGDWGQGTTVTVSS VL: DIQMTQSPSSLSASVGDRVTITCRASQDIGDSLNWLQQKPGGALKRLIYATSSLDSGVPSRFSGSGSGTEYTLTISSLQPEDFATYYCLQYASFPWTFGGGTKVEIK"
  Measure unit: "M⁻¹ s⁻¹"
  kon: 232000
- Binder: "CH110 (antibody, V domains shown, also called chimeric antibody of mab110) VH: QVQLQQSGAELARPGASVQMSCKASGYIFTSYTMHWVKQRPGQGLEWIGYINPNSFYIEYNQKFKDKATLTADTSSSTAYMQLSSLTSEDSAVYYCARGDYDLFYDMDNWGQGTSVTVSS VL: DIQMTQSPSSLSASLGERVSLTCRASQDIGNSLNWLQQEPDGTIKRLIYATFRLDSGVPKRFSGSRSGSDYSLTISSLESEDFVDYYCQQYASFPWTFGGGTKLEIK"
  Measure unit: "M⁻¹ s⁻¹"
  kon: 556000

Now for a further binder.
query: Record request: kon value, item Hab127.32 (antibody, V domains shown, VL3 + VH2; recombined with human heavy and light constant regions) VH: EVQLVQSGAEVKKPGASVKVSCKASGYTFTAYFMNWVMQAPGQGLEWMGRIYHNNGDTFYSQKFKGRVTMTVDKSTSTVYMELSSLRSEDTAVYYCATSYVGDWGQGTTVTVSS VL: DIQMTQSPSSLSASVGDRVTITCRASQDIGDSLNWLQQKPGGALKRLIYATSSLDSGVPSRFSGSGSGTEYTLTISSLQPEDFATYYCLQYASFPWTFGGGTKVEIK
result: 166000
